These entries and their values trace back to patent US10610563B2.

assay.overview: in vitro
condition.notes: human, wild type haploid (HAP1) cells
measured.endpoint: cytotoxicity at 12 h, 0.3 nM (%)
Form entry: value (%) — number only.

// recorded cytotoxicity at 12 h, 0.3 nM for CC(C)C[C@H](NC(=O)[C@H](Cc1ccccc1)NC(=O)c1cnccn1)B(O)O [bortezomib] : 2.62

* * *

assay.overview: in vitro
condition.notes: human, wild type haploid (HAP1) cells
measured.endpoint: cytotoxicity at 6 h, 100 nM (%)
Form entry: value (%) — number only.

// recorded cytotoxicity at 6 h, 100 nM for `CC(C)C[C@H](NC(=O)[C@H](Cc1ccccc1)NC(=O)c1cnccn1)B(O)O` : 6.08

* * *

assay.overview: in vitro
condition.notes: human, wild type haploid (HAP1) cells
measured.endpoint: cytotoxicity at 24 h, 0.3 nM (%)
Form entry: value (%) — number only.

// recorded cytotoxicity at 24 h, 0.3 nM for `CC(C)C[C@H](NC(=O)[C@H](Cc1ccccc1)NC(=O)c1cnccn1)B(O)O` : 11.4

* * *

assay.overview: in vitro
condition.notes: human, wild type haploid (HAP1) cells
measured.endpoint: cytotoxicity at 24 h, 10 nM (%)
Form entry: value (%) — number only.

// recorded cytotoxicity at 24 h, 10 nM for CC(C)C[C@H](NC(=O)[C@H](Cc1ccccc1)NC(=O)c1cnccn1)B(O)O [bortezomib] : 44.8

* * *

assay.overview: in vitro
condition.notes: human, wild type haploid (HAP1) cells
measured.endpoint: cytotoxicity at 24 h, 100 nM (%)
Form entry: value (%) — number only.

// recorded cytotoxicity at 24 h, 100 nM for `CC(C)C[C@H](NC(=O)[C@H](Cc1ccccc1)NC(=O)c1cnccn1)B(O)O` : 78.9

* * *

assay.overview: in vitro
condition.notes: human, wild type haploid (HAP1) cells
measured.endpoint: cytotoxicity at 18 h, 60 nM
Please make sure the unit comes right after the number.

// recorded cytotoxicity at 18 h, 60 nM for `CC(C)C[C@H](NC(=O)[C@H](Cc1ccccc1)NC(=O)c1cnccn1)B(O)O` : 31%

* * *

assay.overview: in vitro
condition.notes: human, wild type haploid (HAP1) cells
measured.endpoint: cytotoxicity at 12 h, 0.1 nM (%)
Form entry: value (%) — number only.

// recorded cytotoxicity at 12 h, 0.1 nM for `CC(C)C[C@H](NC(=O)[C@H](Cc1ccccc1)NC(=O)c1cnccn1)B(O)O` : 3.91

* * *

assay.overview: in vitro
condition.notes: human, wild type haploid (HAP1) cells
measured.endpoint: cytotoxicity at 6 h, 10 nM (%)
Form entry: value (%) — number only.

// recorded cytotoxicity at 6 h, 10 nM for `CC(C)C[C@H](NC(=O)[C@H](Cc1ccccc1)NC(=O)c1cnccn1)B(O)O` : 0.99

* * *

assay.overview: in vitro
condition.notes: human, wild type haploid (HAP1) cells
measured.endpoint: cytotoxicity at 12 h, 3 nM (%)
Form entry: value (%) — number only.

// recorded cytotoxicity at 12 h, 3 nM for `CC(C)C[C@H](NC(=O)[C@H](Cc1ccccc1)NC(=O)c1cnccn1)B(O)O` : 1.1

* * *

assay.overview: in vitro
condition.notes: human, wild type haploid (HAP1) cells
measured.endpoint: cytotoxicity at 18 h, 3 nM (%)
Form entry: value (%) — number only.

// recorded cytotoxicity at 18 h, 3 nM for `CC(C)C[C@H](NC(=O)[C@H](Cc1ccccc1)NC(=O)c1cnccn1)B(O)O` : 7.83

* * *

assay.overview: in vitro
condition.notes: human, wild type haploid (HAP1) cells
measured.endpoint: cytotoxicity at 6 h, 3 nM

// recorded cytotoxicity at 6 h, 3 nM for `CC(C)C[C@H](NC(=O)[C@H](Cc1ccccc1)NC(=O)c1cnccn1)B(O)O` : 1.58%
